target: UniProt P00352; assay: Inhibition of ALDH1A1 (unknown origin); assay type: single protein; conditions: read-out: IC50
Sequence (P00352 whole entry): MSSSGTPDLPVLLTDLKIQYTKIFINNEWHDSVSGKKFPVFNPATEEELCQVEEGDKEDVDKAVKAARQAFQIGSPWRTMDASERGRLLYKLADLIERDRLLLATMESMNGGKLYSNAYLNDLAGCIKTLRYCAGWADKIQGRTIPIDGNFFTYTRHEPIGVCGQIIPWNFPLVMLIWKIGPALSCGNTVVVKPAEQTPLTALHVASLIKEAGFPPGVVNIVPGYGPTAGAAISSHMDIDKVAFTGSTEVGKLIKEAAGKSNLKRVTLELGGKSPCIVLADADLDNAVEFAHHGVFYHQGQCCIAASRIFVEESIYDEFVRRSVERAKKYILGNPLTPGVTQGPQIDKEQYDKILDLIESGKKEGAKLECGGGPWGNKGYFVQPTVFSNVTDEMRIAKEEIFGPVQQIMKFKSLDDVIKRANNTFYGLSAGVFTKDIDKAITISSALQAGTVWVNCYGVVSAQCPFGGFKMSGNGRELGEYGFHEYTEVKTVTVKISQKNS
pIC50: −log10 of the molar value.
Values of pIC50 greater than or equal to 7 map to Satisfied; values below map to Not satisfied.

As a guide, the following entries are already answered.
CCN(Cc1ccc(C(=O)O)cc1)C(=S)SSC(=S)N(CC)Cc1ccc(C(=O)O)cc1    Not satisfied
CCCCN(CCCC)C(=S)SSC(=S)N(CCCC)CCCC    Not satisfied

Does the compound Cl.Cl.NCCSSCCN [CYSTAMINE DIHYDROCHLORIDE] have recorded pIC50 that is 7 or more?
Not satisfied

For this compound, is measured pIC50 7 or higher? S=C(SSC(=S)N1CCCCC1)N1CCCCC1 [BIS(PIPERIDINYLTHIOCARBONYL)DISULFIDE]
Satisfied

Given S=C(SSC(=S)N(Cc1ccccc1)Cc1ccccc1)N(Cc1ccccc1)Cc1ccccc1 [BIS(DIBENZYLAMINETHIOCARBONYL)DISULFIDE] , state whether its pIC50 is at least 7.
Not satisfied

Assess whether reported pIC50 for CC(C)CN(CC(C)C)C(=S)SSC(=S)N(CC(C)C)CC(C)C sits at 7 or higher.
Not satisfied

Assess whether reported pIC50 for CC(C)N(C(=S)SSC(=S)N(C)C)C(C)C sits at 7 or higher.
Not satisfied

Does pIC50 meet or surpass 7 for CCN(Cc1ccc(O)cc1)C(=S)SSC(=S)N(CC)Cc1ccc(O)cc1 ?
Not satisfied

Reported pIC50 reaches at least 7 for S=C(SSC(=S)N1CCOCC1)N1CCOCC1 ?
Satisfied

Exam item: decide whether the reported pIC50 for CCN(Cc1ccccc1)C(=S)SSC(=S)N(CC)Cc1ccccc1 is at least 7.
Not satisfied

====

Molecular target: Aldehyde dehydrogenase, mitochondrial (Homo sapiens, UniProt P05091)
Sequence (P05091 whole entry): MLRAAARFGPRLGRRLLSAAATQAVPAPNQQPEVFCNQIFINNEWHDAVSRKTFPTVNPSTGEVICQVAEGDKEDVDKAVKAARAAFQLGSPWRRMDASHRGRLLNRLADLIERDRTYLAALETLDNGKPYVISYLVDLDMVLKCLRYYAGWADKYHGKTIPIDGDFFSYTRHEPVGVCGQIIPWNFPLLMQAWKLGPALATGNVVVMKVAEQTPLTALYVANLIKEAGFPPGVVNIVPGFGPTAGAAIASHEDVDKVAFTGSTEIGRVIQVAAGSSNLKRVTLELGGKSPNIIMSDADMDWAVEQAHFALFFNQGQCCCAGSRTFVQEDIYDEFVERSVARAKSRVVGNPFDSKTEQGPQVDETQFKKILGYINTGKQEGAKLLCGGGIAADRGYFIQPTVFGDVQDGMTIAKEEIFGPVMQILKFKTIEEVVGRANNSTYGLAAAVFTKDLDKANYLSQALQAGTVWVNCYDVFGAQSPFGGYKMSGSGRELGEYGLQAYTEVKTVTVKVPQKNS
Experiment: Inhibition of ALDH2 (unknown origin)
Type: single protein
readout_type: IC50

CC(=O)NC(CS)C(=O)O (single isomer, unassigned)    Not Active
CC(C)CN(CC(C)C)C(=S)SSC(=S)N(CC(C)C)CC(C)C    Not Active
CCN(Cc1ccccc1)C(=S)SSC(=S)N(CC)Cc1ccccc1    Not Active
Cl.Cl.NCCSSCCN [CYSTAMINE DIHYDROCHLORIDE]    Not Active

Batch: IC50 for all items listed.
1. S=C(SSC(=S)N(Cc1ccccc1)Cc1ccccc1)N(Cc1ccccc1)Cc1ccccc1 [BIS(DIBENZYLAMINETHIOCARBONYL)DISULFIDE]
2. Cl.NCCS [CYSTEAMINE HYDROCHLORIDE]
3. CCN(Cc1ccc(F)cc1)C(=S)SSC(=S)N(CC)Cc1ccc(F)cc1

1: Not Active; 2: Not Active; 3: Not Active

====

biological target: Aldehyde dehydrogenase, mitochondrial (Homo sapiens, UniProt P05091); assay: Inhibition of ALDH2 (unknown origin); format: single protein; conditions: read-out: IC50
Exam item: assign label 1 to entries whose IC50 is below 2 µM and label 0 to entries at or above 2 µM. Note that a value of exactly 2 µM receives label 0.

Record S=C(SSC(=S)N1CCOCC1)N1CCOCC1 : is its IC50 strictly below 2 µM?
label 1

Here's an entry: CCN(Cc1ccc(O)cc1)C(=S)SSC(=S)N(CC)Cc1ccc(O)cc1 . Is its IC50 below 2 µM?
label 0

Please determine if CC(C)N(C(=S)SSC(=S)N(C)C)C(C)C is below 2 µM in terms of IC50.
label 0

Say whether its IC50 is strictly beneath 2 µM. Entry: S=C(SSC(=S)N1CCCCC1)N1CCCCC1 [BIS(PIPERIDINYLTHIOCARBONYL)DISULFIDE]
label 1

Determine whether this molecule shows IC50 lower than 2 µM (ties excluded): CCCCN(CCCC)C(=S)SSC(=S)N(CCCC)CCCC
label 0

Is it true that IC50 reported for CCN(Cc1ccc(C(=O)O)cc1)C(=S)SSC(=S)N(CC)Cc1ccc(C(=O)O)cc1 is less than 2 µM?
label 0
